- ASSAY COMMENT: Caco Permeability Assay
- Format: in vitro ADME
- REPORTED CONDITIONS: human, Caco-2, Caco-2 cells, 3 μM compound
Provide the reported Papp at 2 h, 3 µM of each item.

Consider the reported Papp at 2 h, 3 µM for these compounds:
CNC(=O)c1ccc(Nc2cc(-c3cnn4cc(C#N)cnc34)ncc2C(=O)NC[C@@H](F)C(C)(C)O)cc1 : < 1.5 ×10⁻⁶ cm/s
CC(C)(O)[C@H](F)CNC(=O)c1cnc(-c2cnn3cc(Cl)cnc23)cc1NC12CCC(O)(CC1)C2 : < 1.5 ×10⁻⁶ cm/s
CC(C)(O)[C@H](F)CNC(=O)c1cnc(-c2cnn3cc(C#N)cnc23)cc1NCC(F)F : 1.9 ×10⁻⁶ cm/s
CC(C)(O)[C@H](F)CNC(=O)c1cnc(-c2cnc3cc(C#N)cnn23)cc1Nc1cnn(C2CC(F)(F)C2)c1 : < 1.5 ×10⁻⁶ cm/s

Kindly consider the entry below.
Determine from records and report Papp at 2 h, 3 µM for "CCn1cc(Nc2cc(-c3cnc4cc(C#N)cnn34)ncc2C(=O)NC[C@@H](F)C(C)(C)O)cn1"
< 1.5 ×10⁻⁶ cm/s
